- ASSAY_TARGET: Vasopressin V2 receptor (Homo sapiens, UniProt P30518)
- Sequence (P30518 whole entry): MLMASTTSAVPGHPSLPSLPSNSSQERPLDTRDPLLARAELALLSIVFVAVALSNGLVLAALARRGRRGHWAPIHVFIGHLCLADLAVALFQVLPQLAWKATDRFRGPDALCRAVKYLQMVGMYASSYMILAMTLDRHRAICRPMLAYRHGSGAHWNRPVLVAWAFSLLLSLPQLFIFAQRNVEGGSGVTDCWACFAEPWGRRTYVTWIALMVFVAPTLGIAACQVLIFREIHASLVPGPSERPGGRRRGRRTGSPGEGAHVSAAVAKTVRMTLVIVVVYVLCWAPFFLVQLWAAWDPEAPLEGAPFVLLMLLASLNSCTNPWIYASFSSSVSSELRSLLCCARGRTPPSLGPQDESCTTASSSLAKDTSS
- METHOD_SUMMARY: Displacement of [3H]AVP from human vasopressin V2 receptor expressed in CHO cells
- Format: cell-based
Measured IC50, listed per entry for reference.
API: value field is a number in nM; no unit string.

COMPOUND	ASSAY_TARGET	EXPERIMENTAL_RESULT
Cc1ccc(F)cc1C(=O)Nc1ccc(C(=O)N2CC3C=CC(=O)N3Cc3ccccc32)c(Cl)c1 (centres undefined)	Vasopressin V2 receptor (Homo sapiens, UniProt P30518)	34

Next, consider the following compound.
Q: What value of measured IC50 is listed for Cc1ccc(F)cc1C(=O)Nc1ccc(C(=O)N2C=C3CCC(=O)N3Cc3ccccc32)c(Cl)c1 ?
A: 11
